The next entries give measured IC50 for Acetylcholinesterase (Electrophorus electricus, UniProt O42275).
Numbers only, in µM.

# record_smiles, IC50 (µM)
rows = [
    ("COc1ccc2c(c1)c(C=O)cn2CCCCCCCCCCN(C)Cc1cccc(O)c1", 3.1),
    ("COc1ccc2c(c1)c(C=O)cn2CCCCCCCCCCN(C)Cc1ccc(O)cc1", 1.47),
    ("COc1ccc2c(c1)c(C=O)cn2CCCCCCN(C)Cc1ccc(O)cc1", 0.54),
]

Fill in IC50 for each of the 8 molecules listed.
1. COc1ccc2c(c1)c(C=O)cn2CCCCCCCCCCCCN(C)Cc1ccc(O)cc1
2. COc1ccc2c(c1)c(C=O)cn2CCCCCCCCN(C)Cc1cccc(O)c1
3. COc1ccc2c(c1)c(C=O)cn2CCCCCCCN(C)Cc1ccc(O)cc1
4. CN(CCCCCCCCCCCCn1cc(C=O)c2cc(O)ccc21)Cc1cccc(O)c1
5. COc1ccc2c(c1)c(C=O)cn2CCCCCCCCCCCCCCN(C)Cc1cccc(O)c1
6. CCN(CCCCCCCCCCCCn1cc(C=O)c2cc(OC)ccc21)Cc1cccc(O)c1
7. COc1ccc2c(c1)c(C=O)cn2CCCCCCCCCCCCN(C)Cc1cccc(O)c1
8. COc1ccc2c(c1)c(C=O)cn2CCCCCN(C)Cc1ccc(O)cc1

Result:
1. 33.8
2. 3.39
3. 1.43
4. 69.5
5. 31.6
6. 10.5
7. 27.6
8. 26.9

State recorded IC50 for all listed molecules.
1. COc1ccc2c(c1)c(C=O)cn2CCCCCCCCCN(C)Cc1ccc(O)cc1
2. COc1ccc2c(c1)c(C=O)cn2CCCCN(C)Cc1ccc(O)cc1

Result:
[25.8, 65.2]

Below are 7 molecules. Give each one its IC50.
1. COc1ccc2c(c1)c(C=O)cn2CCCCCCCCCN(C)Cc1cccc(O)c1
2. COc1ccc2c(c1)c(C=O)cn2CCCN(C)Cc1ccc(O)cc1
3. COc1ccc2c(c1)c(C=O)cn2CCCCCCN(C)Cc1cccc(O)c1
4. COc1cccc(CN(C)CCCCCCCCCCCCn2cc(C=O)c3cc(OC)ccc32)c1
5. COc1ccc(CN(C)CCCCCCCCCCCCn2cc(C=O)c3cc(OC)ccc32)cc1
6. COc1ccc2c(c1)c(C=O)cn2CCCCCN(C)Cc1cccc(O)c1
7. COc1ccc2c(c1)c(C=O)cn2CCCCCCCN(C)Cc1cccc(O)c1

Result:
1. 3.36
2. 67.6
3. 0.81
4. 69.1
5. 79.9
6. 7.13
7. 1.39

Go through the list and state IC50 for each entry.
1. COc1ccc2c(c1)c(C=O)cn2CCCCCCCCN(C)Cc1ccc(O)cc1
2. COc1ccc2c(c1)c(C=O)cn2CCCCCCCCCCCCN(C)Cc1ccc(OC)c(OC)c1

Result:
1. 1.77
2. 51.8
